pIC50: −log10 of the molar value. Counter-ions that a name gives are not always drawn.
A set of compounds tested on S1P1 (Homo sapiens, UniProt P21453), with measured pIC50:
measurement_type: pIC50

compound	pIC50
O=C(O)C1CN(Cc2ccc(-c3noc(-c4noc(-c5ccccc5)c4CCC(F)(F)F)n3)cc2)C1	10.05
CCCc1onc(-c2nc(-c3ccc(CN4CC(C(=O)O)C4)cc3)no2)c1CC(C)C [Example 19, TFA]	9.52
CNC(=O)c1c(-c2ccccc2)noc1-c1nc(-c2ccc(CN3CC(C(=O)O)C3)cc2)no1	9.15
CCCCc1c(-c2nc(-c3ccc(CN4CC(C(=O)O)C4)cc3)no2)noc1-c1ccccc1	10.19
CC(C)(C)c1c(-c2nc(-c3ccc(CN4CC(C(=O)O)C4)cc3)no2)noc1-c1ccccc1	9.24

(A) CCC(F)(F)c1c(-c2nc(-c3ccc(CN4CC(C(=O)O)C4)cc3)no2)noc1-c1ccccc1 [Example 10, trifluoroacetic acid salt]
(B) CCCc1c(-c2nc(-c3ccc(CN4CC(C(=O)O)C4)cc3)no2)noc1CC(C)C [Example 18, TFA]
[ask] // which entry has the larger pIC50 value, A or B ? Choose, then provide that item's label.
[reply] A
(A: 10.26, B: 9.85)

* * *

- tested_system: UniProtKB Q99500
- Sequence (Q99500 whole entry, species assumed): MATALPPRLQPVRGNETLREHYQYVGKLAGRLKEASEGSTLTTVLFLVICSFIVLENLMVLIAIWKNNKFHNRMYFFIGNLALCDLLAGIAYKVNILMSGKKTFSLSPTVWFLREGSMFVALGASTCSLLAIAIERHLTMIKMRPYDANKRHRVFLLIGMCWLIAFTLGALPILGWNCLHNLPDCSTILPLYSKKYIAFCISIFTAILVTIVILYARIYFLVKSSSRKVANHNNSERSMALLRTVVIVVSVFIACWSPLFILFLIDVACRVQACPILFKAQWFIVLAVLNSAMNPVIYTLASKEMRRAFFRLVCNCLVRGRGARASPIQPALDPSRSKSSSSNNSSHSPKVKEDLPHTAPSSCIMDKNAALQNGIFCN
- assay_text: Method B: Receptor [35S] GTPγS SPA Binding Assay, membranes from S1P3 transfected CHO cells
- Type: biochemical
- Set-up: expressed in transfected cells; host or cells: CHO cells
- assay_setup: S1P3 transfected CHO cell membranes, NC = a satisfactory dose response curve was not obtained
- Method: Membranes prepared from S1P1 or S1P3 transfected CHO cells (2 μg protein) were incubated in 96-well white plates (CORNING® 3693) with test compounds diluted in DMSO, in 50 μl of reaction mixture containing 7.5 μl WGA-PVT beads (20 mg/ml), and 5 μM GDP, 20 mM HEPES pH 7.4, 100 mM NaCl, 1 mM EDTA, 5 mM MgCl2, 10 μg/ml saponin, 0.1% BSA, and 1 μM leupeptin. […] The bound radionuclides were measured at TOPCOUNT®, expressed as % response relative to S1P (1 μM) activation. […]
Where a name gives a salt, the structure may show the parent alone.
measurement_type: EC50 (nM)

// below: answered compounds
compound	tested_system	unit_tag	EC50
CCCc1c(-c2nc(-c3ccc(CN4CC(C(=O)O)C4)cc3)no2)noc1CC(C)C [Example 18, TFA]	UniProtKB Q99500	nM	21
O=C(O)C1CN(Cc2ccc(-c3noc(-c4cc(-c5ccccc5)c(C(F)(F)F)s4)n3)cc2)C1 [Comp. A, reference compound]	UniProtKB Q99500	nM	20
CCCc1c(-c2ccccc2)noc1-c1nc(-c2ccc(CN3CC(C(=O)O)C3)cc2)no1	UniProtKB Q99500	nM	50
O=C(O)C1CN(Cc2ccc(-c3noc(-c4onc(-c5ccccc5)c4C(F)(F)F)n3)cc2)C1	UniProtKB Q99500	nM	510
O=C(O)C1CN(Cc2ccc(-c3noc(-c4onc(-c5ccccc5)c4C(F)F)n3)cc2)C1	UniProtKB Q99500	nM	1600

(a) CC(C)(C)c1c(-c2nc(-c3ccc(CN4CC(C(=O)O)C4)cc3)no2)noc1-c1ccccc1
(b) O=C(O)C1CN(Cc2ccc(-c3noc(-c4noc(-c5ccccc5)c4C(F)(F)F)n3)cc2)C1
[ask] Sorting ascending by EC50, which comes first: a or b ? Choose, then provide that item's label.
[reply] b
(b: 350 nM, a: 8100 nM)

(I) O=C(O)C1CN(Cc2ccc(-c3noc(-c4noc(-c5ccccc5)c4-c4ccccc4)n3)cc2)C1
(II) CC(F)(F)c1c(-c2nc(-c3ccc(CN4CC(C(=O)O)C4)cc3)no2)noc1-c1ccccc1
[ask] // which entry has the larger EC50 value, I or II ? Choose, then provide that item's label.
[reply] II
(II: 910 nM, I: 13.5 nM)
